- study target: HIV-1 integrase (wild-type IN) (Human immunodeficiency virus type 1 group M subtype B, UniProt P12497)
- run description: HIV-1 integrase 3′-processing assay (32P-labeled 21-mer, gel)
- Assay type: biochemical
- conditions used: unit inferred; read-out: HIV-1 IN Inhibitory Activities 3′-processing
measured property: IC50

CCOC(=O)c1c(-c2ccccc2)csc1NC(NC(=O)c1ccco1)C(=O)c1ccc(C)cc1 (stereo not drawn) [Example X88] ... > 100 µM

Challenge: Give the measured IC50 of COc1cc(C(=O)Nc2ccc(O)c(-c3nc4ccccc4o3)c2)cc(OC)c1OC [XR18] .
Response given: < 100 µM

Challenge: Give the measured IC50 of CC(=O)C1=C(O)C(=O)N(CC(=O)O)C1c1ccc(Br)cc1 (stereo not drawn) [Compound X36] .
Response given: > 100 µM

Challenge: Give the measured IC50 of COc1ccc(C2C(C(=O)c3ccco3)=C(O)C(=O)N2CCN2CCOCC2)c(OC)c1 (stereo not drawn) [MMC8] .
Response given: > 1000 µM

Challenge: Give the measured IC50 of Cc1ccc(C(=O)N/C(=C/c2ccc(-c3ccc(Cl)cc3Cl)o2)C(=O)NCCCO)cc1 [Example X280] .
Response given: > 1000 µM

Challenge: Give the measured IC50 of Cc1cc2nc(-c3cc(NC(=O)c4ccc(F)cc4)ccc3O)oc2cc1C [XR16] .
Response given: < 100 µM
